- testSystem: Cdc42 (Homo sapiens, UniProt P60953)
- Sequence (P60953 whole entry): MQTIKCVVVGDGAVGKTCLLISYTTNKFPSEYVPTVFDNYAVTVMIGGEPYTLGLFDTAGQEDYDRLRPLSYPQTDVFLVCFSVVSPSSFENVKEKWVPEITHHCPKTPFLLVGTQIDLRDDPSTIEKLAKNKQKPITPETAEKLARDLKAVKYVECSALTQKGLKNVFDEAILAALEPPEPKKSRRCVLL
- protocolText: Cdc42-GEF-assay, additional compound screening
- Assay type: biochemical
- Design: purchased Cytoskeleton Inc
- details: assay slope relative to ZCL278, normalized to batch
Peptide text beside a SMILES is read from it. * marks the point of attachment. Trt = c1ccc(C(c2ccccc2)(c2ccccc2)*)cc1; Cbz = O=C(OCc1ccccc1)*; NHNH2 = NN*
parameterMeasured: % ZCL278 (with GEF) (%)
Output spec: scalar in %, unitless text.

- compound: "O=C(c1ccccc1O)N1CCOc2c(O)cc(-c3nc4ccccc4s3)cc2C1"
  testSystem: "Cdc42 (Homo sapiens, UniProt P60953)"
  unitOfMeasure: "%"
  resultValue: 98.499
- compound: "CC(=O)Nc1ccc(Nc2nc(-c3ccc(O)cc3)cs2)cc1"
  testSystem: "Cdc42 (Homo sapiens, UniProt P60953)"
  unitOfMeasure: "%"
  resultValue: 97.542
- compound: "CC1(C)OC2COC(c3[nH]nc(C(N)=O)c3C(=O)N=[N+]=[N-])C2O1 (stereo not shown)"
  testSystem: "Cdc42 (Homo sapiens, UniProt P60953)"
  unitOfMeasure: "%"
  resultValue: 82.316
- compound: "O=C(CCN1C(=O)C2C(C1=O)[C@H]1C=C[C@@H]2C1)Nc1cccc2ccccc12 (stereo partly shown)"
  testSystem: "Cdc42 (Homo sapiens, UniProt P60953)"
  unitOfMeasure: "%"
  resultValue: 103.291
- compound: "NNC(=O)C(Cc1cnc[nH]1)NC(=O)CNC(=O)C(CSC(c1ccccc1)(c1ccccc1)c1ccccc1)NC(=O)OCc1ccccc1 (stereo not drawn) [NSC129911] (Cbz-Cys(Trt)-Gly-His-NHNH2; configuration not given here)"
  testSystem: "Cdc42 (Homo sapiens, UniProt P60953)"
  unitOfMeasure: "%"
  resultValue: 96.611

Could you share which % ZCL278 (with GEF) value was measured for OCN1CCC2N(CO)CCC3N(CO)CCC1N23 (stereo not shown) ?
92.160

---

- testSystem: Cdc42 (Homo sapiens, UniProt P60953)
- protocolText: Cdc42-GEF-assay, additional compound screening
- Type: biochemical
- Set-up: purchased Cytoskeleton Inc
- details: percentages of ZCL367 normalized to batch; less than 100% = more potent inhibitor
Decide using % ZCL367 (inhibitor activity): a value greater than or equal to 70% is True, a smaller one is False.

- molecule: "O=C1C2C(C(=O)N1/N=C/c1c(O)ccc3ccccc13)[C@H]1C=CC2C12CC2 (some centres unmarked) [ZCL1107]"
  testSystem: "Cdc42 (Homo sapiens, UniProt P60953)"
  cat: "False"
- molecule: "NC(=O)c1ccsc1NC(=O)c1cc(-c2cccc(Br)c2)nc2ccc(Cl)cc12 [ZCL1125]"
  testSystem: "Cdc42 (Homo sapiens, UniProt P60953)"
  cat: "False"
- molecule: "NC(=O)c1[nH]nc(C2OC(CO)C(O)C2O)c1O (centres unmarked) [NSC143095]"
  testSystem: "Cdc42 (Homo sapiens, UniProt P60953)"
  cat: "False"

Assess whether reported % ZCL367 (inhibitor activity) for NC(=O)c1cc([N+](=O)[O-])ccc1NCCN1C(=O)C2C(C1=O)[C@H]1C=C[C@@H]2C1 (some centres unmarked) [ZCL1118] sits at 70% or higher.
False

What about this molecule? O=C(C(=O)N1CCC(O)(CO)CC1)c1c(-c2ccccc2)cc2ccccn12 [ZCL1137]
True

Next molecule up: C[C@H](Oc1cccc(Cl)c1)C(=O)Nc1ccccc1NC(=O)[C@H](C)Oc1cccc(Cl)c1 [ZCL1120]
True

Same question, O=C(N/N=C/c1ccccc1O)c1cc(O)cc(O)c1 [ZCL367] this time
True
